biological target: T1, human plasma kallikrein (PKal) (human, UniProt P03952 20-638); assay: Ki,app; Fab inhibition of PKal cleavage of a substrate peptide, Morrison fit
T1 construct: Active PKal is cleaved at the marked R/I site into two disulfide-linked chains; also called human Pkal; active PKal
T1 sequence (P03952 20-638 limits assumed): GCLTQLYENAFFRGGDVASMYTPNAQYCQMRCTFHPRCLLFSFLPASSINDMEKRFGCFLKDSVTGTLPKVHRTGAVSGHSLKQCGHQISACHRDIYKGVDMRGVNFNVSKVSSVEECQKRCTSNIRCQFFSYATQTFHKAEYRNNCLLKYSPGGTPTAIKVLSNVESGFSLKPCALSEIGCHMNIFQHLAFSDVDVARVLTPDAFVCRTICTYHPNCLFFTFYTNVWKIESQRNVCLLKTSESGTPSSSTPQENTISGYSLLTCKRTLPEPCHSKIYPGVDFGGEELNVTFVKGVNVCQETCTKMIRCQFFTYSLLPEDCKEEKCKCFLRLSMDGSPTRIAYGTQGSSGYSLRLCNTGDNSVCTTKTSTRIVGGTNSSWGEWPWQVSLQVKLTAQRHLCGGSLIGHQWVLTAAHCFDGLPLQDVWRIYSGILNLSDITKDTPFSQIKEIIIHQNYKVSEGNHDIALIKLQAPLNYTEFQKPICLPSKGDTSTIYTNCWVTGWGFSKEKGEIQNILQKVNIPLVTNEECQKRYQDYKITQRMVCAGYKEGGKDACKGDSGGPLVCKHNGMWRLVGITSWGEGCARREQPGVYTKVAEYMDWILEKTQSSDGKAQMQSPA
# pKi listing for each entry below
Schema: pKi number; meaning minus log10 of the concentration expressed in molar units.

M0202-Al2 (Fab, V domains shown, HC CDR3 variant of M0162-A04, tested as Fab; also called M0202-A12 (probable reading)) VH: EVQLLESGGGLVQPGGSLRLSCAASGFTFSHYIMMWVRQAPGKGLEWVSGIYSSGGITVYADSVKGRFTISRDNSKNTLYLQMNSLRAEDTAVYYCAYQRTGVPRRDSFNIWGQGTMVTVSS VL: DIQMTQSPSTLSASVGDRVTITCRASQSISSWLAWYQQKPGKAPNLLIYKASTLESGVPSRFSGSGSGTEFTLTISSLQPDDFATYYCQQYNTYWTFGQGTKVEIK
10.00

// moving on: another record for pKi
Task item: So what does the record say about pKi for M0201-H08 (Fab, V domains shown, HC CDR3 variant of M0162-A04, tested as Fab) VH: EVQLLESGGGLVQPGGSLRLSCAASGFTFSHYIMMWVRQAPGKGLEWVSGIYSSGGITVYADSVKGRFTISRDNSKNTLYLQMNSLRAEDTAVYYCAYRRTGVPRRDALDNWGQGTMVTVSS VL: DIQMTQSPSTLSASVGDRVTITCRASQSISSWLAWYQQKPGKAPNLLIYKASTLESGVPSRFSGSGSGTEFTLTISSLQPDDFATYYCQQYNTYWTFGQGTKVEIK ?
Reply: 9.10
